growth listing for selected compounds.
System: OVCAR-8 ovarian
Assay: NCI-60 one-dose screen, 48 h (100 = growth as untreated, 0 = no growth, -100 = all killed)
Conditions: 10 µM unless noted
This is part of a sample that, as a whole, favours compounds with a hit. Of some 83,000 tested, about 20% had one in any assay.
Reply numerically in %, unit not repeated.

COMPOUND: CCOP(=O)(OCC)C(=O)N(CC)CC
NUMERIC_RESULT: 96.1

COMPOUND: O=C(Cc1ccccc1)c1ccccc1
NUMERIC_RESULT: 108

Look up growth for this compound: CC[PH+](CC)CC.O=COC1OC([S-])C(OC=O)C(OC=O)C1OC=O.[Au+] (stereo not given)
1.43

Look up growth for this compound: COC(=O)C12C3C4C1C1C2C3C41NC(=O)c1csc([C@@H](C[C@H](C(C)C)N(C)C(=O)[C@@H](NC(=O)[C@H]2CCCCN2C)C2CC2)OC(C)=O)n1 (stereo not given in full)
18.9

Look up growth for this compound: O=C1NC(=O)C(=C/C=C/c2ccccc2)C(=O)N1
-3.62
